B1: library; a variant is named by its letters at N, in order (parent)
chain: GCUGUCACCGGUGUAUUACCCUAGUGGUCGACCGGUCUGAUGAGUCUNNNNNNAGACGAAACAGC

- Variants of: B1
- Assay Notes: normalized RNA/DNA level with ligand (relative to sTRSVctl = 100) (log10 (% of sTRSVctl)); ligand: hypoxanthine (xanthine aptamer); higher = less ribozyme self-cleavage, higher mRNA level
- Measurement Conditions: ligand concentration (+) RNA-Seq: 5 mM, HEK293T, reporter: mCherry (pCS4076), ligand present: yes
Recorded Endpoint: normalized RNA/DNA level with ligand (log10)

>  <Mutant Designation>
CAUAGG

>  <Assay Result>
1.84

$$$$
>  <Mutant Designation>
CGCGGU

>  <Assay Result>
1.96

$$$$
>  <Mutant Designation>
CAGCGU

>  <Assay Result>
1.97

$$$$
>  <Mutant Designation>
GCGUGU

>  <Assay Result>
1.84

$$$$
>  <Mutant Designation>
CUAUUU

>  <Assay Result>
2

$$$$
>  <Mutant Designation>
CGUUAC

>  <Assay Result>
1.91

$$$$
>  <Mutant Designation>
UCUUCA

>  <Assay Result>
1.97

$$$$
>  <Mutant Designation>
AUCGAG

>  <Assay Result>
1.79

$$$$
>  <Mutant Designation>
ACUUAU

>  <Assay Result>
1.9

$$$$
>  <Mutant Designation>
UAUCCA

>  <Assay Result>
1.92

$$$$
>  <Mutant Designation>
AUCACC

>  <Assay Result>
1.98

$$$$
>  <Mutant Designation>
AAGUCU

>  <Assay Result>
1.91

$$$$
>  <Mutant Designation>
ACAUCG

>  <Assay Result>
1.93

$$$$
>  <Mutant Designation>
UGGUGG

>  <Assay Result>
1.93

$$$$
>  <Mutant Designation>
AAUGAG

>  <Assay Result>
1.81

$$$$
>  <Mutant Designation>
UCAAUC

>  <Assay Result>
2.02

$$$$
>  <Mutant Designation>
GUCUGC

>  <Assay Result>
1.92

$$$$
>  <Mutant Designation>
CAUUUA

>  <Assay Result>
1.98

$$$$
>  <Mutant Designation>
GUGUUA

>  <Assay Result>
1.91

$$$$
>  <Mutant Designation>
GUUCCU

>  <Assay Result>
1.99

$$$$
>  <Mutant Designation>
GAAUCA

>  <Assay Result>
1.94

$$$$
>  <Mutant Designation>
AGGAUU

>  <Assay Result>
1.93

$$$$
>  <Mutant Designation>
GACAAU

>  <Assay Result>
1.9

$$$$
>  <Mutant Designation>
GAUGCA

>  <Assay Result>
1.97

$$$$
>  <Mutant Designation>
GGACAC

>  <Assay Result>
1.9

$$$$
>  <Mutant Designation>
AAUGGA

>  <Assay Result>
1.88

$$$$
>  <Mutant Designation>
CCAGUU

>  <Assay Result>
2.01

$$$$
>  <Mutant Designation>
UAUUUG

>  <Assay Result>
1.93

$$$$
>  <Mutant Designation>
UACCGU

>  <Assay Result>
1.95

$$$$
>  <Mutant Designation>
CAUACA

>  <Assay Result>
1.9

$$$$
>  <Mutant Designation>
AUAUUU

>  <Assay Result>
1.9

$$$$
>  <Mutant Designation>
UUGUCC

>  <Assay Result>
1.99

$$$$
>  <Mutant Designation>
CAGAGU

>  <Assay Result>
1.97

$$$$
>  <Mutant Designation>
ACCAUG

>  <Assay Result>
1.91

$$$$
>  <Mutant Designation>
CCGUCG

>  <Assay Result>
1.89

$$$$
>  <Mutant Designation>
CAGACC

>  <Assay Result>
2.04

$$$$
>  <Mutant Designation>
CGUGUU

>  <Assay Result>
1.97

$$$$
>  <Mutant Designation>
CUGCUG

>  <Assay Result>
1.92

$$$$
>  <Mutant Designation>
AUGUAU

>  <Assay Result>
1.92

$$$$
>  <Mutant Designation>
CUAACA

>  <Assay Result>
1.88

$$$$
>  <Mutant Designation>
GUGGCA

>  <Assay Result>
1.98

$$$$
>  <Mutant Designation>
UACAGG

>  <Assay Result>
1.84

$$$$
>  <Mutant Designation>
UGACUU

>  <Assay Result>
1.91

$$$$
>  <Mutant Designation>
AUCAAU

>  <Assay Result>
1.89

$$$$
>  <Mutant Designation>
UCGGUC

>  <Assay Result>
2.03

$$$$
>  <Mutant Designation>
GGCCGA

>  <Assay Result>
1.98

$$$$

Hello, the source for this data is the supplement of paper PMC6757056, in case you need it.
